Would you kindly list apparent Kd for each of these binders?
target: il10ra, Q13651; test: yeast display titration
Sequence (Q13651 whole entry): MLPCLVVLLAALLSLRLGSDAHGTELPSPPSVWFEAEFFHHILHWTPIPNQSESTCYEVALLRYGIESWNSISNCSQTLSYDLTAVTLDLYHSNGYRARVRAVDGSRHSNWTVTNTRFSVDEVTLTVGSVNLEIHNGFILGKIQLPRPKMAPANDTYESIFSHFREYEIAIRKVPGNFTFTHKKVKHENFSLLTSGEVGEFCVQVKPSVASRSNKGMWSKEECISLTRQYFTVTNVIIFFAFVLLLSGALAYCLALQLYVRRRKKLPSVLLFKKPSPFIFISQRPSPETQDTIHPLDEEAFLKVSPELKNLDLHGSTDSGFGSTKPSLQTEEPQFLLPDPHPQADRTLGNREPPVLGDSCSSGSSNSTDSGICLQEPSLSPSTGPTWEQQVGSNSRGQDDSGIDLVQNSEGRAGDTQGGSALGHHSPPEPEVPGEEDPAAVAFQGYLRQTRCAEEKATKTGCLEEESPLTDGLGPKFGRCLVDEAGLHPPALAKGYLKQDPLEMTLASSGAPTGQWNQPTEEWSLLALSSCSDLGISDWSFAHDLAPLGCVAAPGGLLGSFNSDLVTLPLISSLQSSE
The list is a sample of the results. How many sequences the whole screen found active is unknown.

Identify measured apparent Kd associated with il10ra_site1_sap_22_mot_HHH_b2_03328_af2_000000127_0001_1_19_H_._HHH_b1_06177_0001_0000200023_0000001_0_0001 (protein) SSSSTQELYELLRRIVELDHKGNLEEAERLLEELEELARERNDPNIRMQVEFLEEIIRRNLSSSS
> 1760 nM (inactive)

Identify measured apparent Kd associated with il10ra_site1_sap_25_mot_HHH_b1_08133_000000195_0001_1_19_H_._HHH_b1_03607_0001_0000200023_0000001_0_0001_af2pred_0001 (protein) SSSSSEEVEELEEEARELIKRNDPEEVLKIIRRLARLAFRLNDPEISKIAIELAELLKKLDSSSS
> 233 nM (inactive)
